In this section we review reported CC50 at 5 days values for a set of compounds.
assay: in vitro; settings: human, uninfected MT-4 cells

Compound: COC1=NO[C@@]2(CC[C@H](C)N3C[C@H]2n2cc(C(=O)NCc4ccc(F)cc4F)c(=O)c(OCOC(=O)OCC4(COP(=O)(O)O)CCC4)c2C3=O)C1 [Compound 48]
Unit descriptor: µM
CC50 at 5 days: 15.7

Compound: CC1=NO[C@@]2(CC[C@H](C)N3C[C@H]2n2cc(C(=O)NCc4ccc(F)cc4F)c(=O)c(OCOC(=O)N(C)C[C@@H]4CCCN4)c2C3=O)C1 [Compound 13]
Unit descriptor: µM
CC50 at 5 days: 10.8

Compound: CC1=NO[C@@]2(CC[C@H](C)N3C[C@H]2n2cc(C(=O)NCc4ccc(F)cc4F)c(=O)c(OCOC(=O)[C@@H]4[C@H](COP(=O)(O)O)[C@H]4C(=O)O)c2C3=O)C1 [Compound 78]
Unit descriptor: µM
CC50 at 5 days: 8.05

###

assay: in vitro; conditions: human, uninfected MT-4 cells

Molecule: CC1=NO[C@@]2(CC[C@H](C)N3C[C@H]2n2cc(C(=O)NCc4ccc(F)cc4F)c(=O)c(OCOC(=O)O[C@@H]4CC[C@H](OP(=O)(O)O)C4)c2C3=O)C1
Modifier: ≥
CC50 at 5 days [µM]: 50
//
Molecule: COC1=NO[C@@]2(CC[C@H](C)N3C[C@H]2n2cc(C(=O)NCc4ccc(F)cc4F)c(=O)c(OCc4oc(=O)oc4C)c2C3=O)C1
Modifier: =
CC50 at 5 days [µM]: 18.9
//
Molecule: CC1=NO[C@@]2(CC[C@H](C)N3C[C@H]2n2cc(C(=O)NCc4ccc(F)cc4F)c(=O)c(OC(=O)[C@@H]4CCCN4C(=O)OCOP(=O)(O)O)c2C3=O)C1
Modifier: =
CC50 at 5 days [µM]: 13
//
Molecule: CCCCCCCCCCCCCC(=O)NCc1ccccc1C(=O)Oc1c2n(cc(C(=O)NCc3ccc(F)cc3F)c1=O)[C@@H]1CN(C2=O)[C@@H](C)CC[C@]12CC(C)=NO2
Modifier: =
CC50 at 5 days [µM]: 31.8
//
Molecule: CCCCCCCCCCCCCC(=O)Nc1ccc(CC(=O)Oc2c3n(cc(C(=O)NCc4ccc(F)cc4F)c2=O)[C@@H]2CN(C3=O)[C@@H](C)CC[C@]23CC(OC)=NO3)cc1
Modifier: ≥
CC50 at 5 days [µM]: 50
//
Molecule: CCCCCCCCCCCCCC(=O)Oc1ccc(C(=O)Oc2c3n(cc(C(=O)NCc4ccc(F)cc4F)c2=O)[C@@H]2CN(C3=O)[C@@H](C)CC[C@]23CC(C)=NO3)cc1
Modifier: =
CC50 at 5 days [µM]: 12.8
//
Molecule: CC1=NO[C@@]2(CC[C@H](C)N3C[C@H]2n2cc(C(=O)NCc4ccc(F)cc4F)c(=O)c(OCOC(=O)O[C@H]4CCC[C@@H]4OP(=O)(O)O)c2C3=O)C1
Modifier: =
CC50 at 5 days [µM]: 15.1
//
Molecule: CC1=NO[C@@]2(CC[C@H](C)N3C[C@H]2n2cc(C(=O)NCc4ccc(F)cc4F)c(=O)c(OCOC(=O)N(C)c4ncccc4COC(=O)[C@@H](N)C(C)C)c2C3=O)C1
Modifier: =
CC50 at 5 days [µM]: 14.6
//
Molecule: CC1=NO[C@@]2(CC[C@H](C)N3C[C@H]2n2cc(C(=O)NCc4ccc(F)cc4F)c(=O)c(OCOC(=O)OCC4(COP(=O)(O)O)COC4)c2C3=O)C1
Modifier: =
CC50 at 5 days [µM]: 12.8
//
Molecule: CCCCCCCCCCCCCC(=O)OCc1ccccc1C(=O)Oc1c2n(cc(C(=O)NCc3ccc(F)cc3F)c1=O)[C@@H]1CN(C2=O)[C@@H](C)CC[C@]12CC(OC)=NO2
Modifier: ≥
CC50 at 5 days [µM]: 50
//
Molecule: CC1=NO[C@@]2(CC[C@H](C)N3C[C@H]2n2cc(C(=O)NCc4ccc(F)cc4F)c(=O)c(OCOC(=O)N(C)c4ncccc4COP(=O)(O)O)c2C3=O)C1
Modifier: =
CC50 at 5 days [µM]: 10.2
//
Molecule: CC1=NO[C@@]2(CC[C@H](C)N3C[C@H]2n2cc(C(=O)NCc4ccc(F)cc4F)c(=O)c(OCOC(=O)N(C)c4ncccc4CN(CC(=O)N[C@@H](CC(=O)O)C(=O)O)C(=O)OCOP(=O)(O)O)c2C3=O)C1
Modifier: =
CC50 at 5 days [µM]: 22
//
Molecule: CC1=NO[C@@]2(CC[C@H](C)N3C[C@H]2n2cc(C(=O)NCc4ccc(F)cc4F)c(=O)c(OCOC(=O)O[C@H]4CCCC[C@@H]4OP(=O)(O)O)c2C3=O)C1
Modifier: =
CC50 at 5 days [µM]: 13.5
//
Molecule: CC1=NO[C@@]2(CC[C@H](C)N3C[C@H]2n2cc(C(=O)NCc4ccc(F)cc4F)c(=O)c(OCOC(=O)OCC4(COP(=O)(O)O)COC(=O)N4C)c2C3=O)C1 (some centres unmarked)
Modifier: =
CC50 at 5 days [µM]: 12.9
//
Molecule: COC1=NO[C@@]2(CC[C@H](C)N3C[C@H]2n2cc(C(=O)NCc4ccc(F)cc4F)c(=O)c(OCOC(=O)N(C)C[C@@H]4CCCN4)c2C3=O)C1
Modifier: =
CC50 at 5 days [µM]: 14.7
//
Molecule: CC1=NO[C@@]2(CC[C@H](C)N3C[C@H]2n2cc(C(=O)NCc4ccc(F)cc4F)c(=O)c(OCOC(=O)O[C@H]4CCCC[C@H]4OP(=O)(O)O)c2C3=O)C1
Modifier: =
CC50 at 5 days [µM]: 21.2
//
Molecule: CNCC(=O)OCc1cccnc1N(C)C(=O)OCOc1c2n(cc(C(=O)NCc3ccc(F)cc3F)c1=O)[C@@H]1CN(C2=O)[C@@H](C)CC[C@]12CC(C)=NO2
Modifier: =
CC50 at 5 days [µM]: 10.5
//
Molecule: CC1=NO[C@@]2(CC[C@H](C)N3C[C@H]2n2cc(C(=O)NCc4ccc(F)cc4F)c(=O)c(OCOC(=O)O[C@H]4CCCCC[C@@H]4OP(=O)(O)O)c2C3=O)C1
Modifier: =
CC50 at 5 days [µM]: 19.4
//
Molecule: CC1=NO[C@@]2(CC[C@H](C)N3C[C@H]2n2cc(C(=O)NCc4ccc(F)cc4F)c(=O)c(OCOC(=O)OC[C@@H]4CCCC[C@@H]4OP(=O)(O)O)c2C3=O)C1
Modifier: =
CC50 at 5 days [µM]: 13
//
Molecule: CC1=NO[C@@]2(CC[C@H](C)N3C[C@H]2n2cc(C(=O)NCc4ccc(F)cc4F)c(=O)c(OCOC(=O)N(C)c4ncccc4COC(=O)[C@@H](N)CCCCN)c2C3=O)C1
Modifier: =
CC50 at 5 days [µM]: 10.2
